assay: Pharmacokinetics in mice, single IP injection; assay type: in vivo; settings: Nude, mouse, plasma, intraperitoneal, 25 mg/kg, 25 mg/kg IP, 0.5 h, individual animals
metric.name: concentration at 0.5 h (nM)

structure.as.smiles | metric.name | output.unit | test.value
Cc1ncsc1-c1ccc([C@H](C)NC(=O)[C@@H]2C[C@@H](O)CN2C(=O)[C@@H](NC(=O)CCCCCCCCCN2CCN(C(=O)CCCCCC3(CN)CCN(c4cnc(Sc5cccc(Cl)c5Cl)c(N)n4)CC3)CC2)C(C)(C)C)cc1 | concentration at 0.5 h | nM | 560

* * *

assay: Pharmacokinetics in mice, single IP injection; assay type: in vivo; conditions: Nude, mouse, plasma, intraperitoneal, 25 mg/kg, 25 mg/kg IP, 2 h, individual animals

structure.as.smiles | concentration at 2 h, nM
Cc1ncsc1-c1ccc([C@H](C)NC(=O)[C@@H]2C[C@@H](O)CN2C(=O)[C@@H](NC(=O)CCCCCCCCCN2CCN(C(=O)CCCCCC3(CN)CCN(c4cnc(Sc5cccc(Cl)c5Cl)c(N)n4)CC3)CC2)C(C)(C)C)cc1 | 920

* * *

Target: SHP2 (Homo sapiens, UniProt Q06124)
Sequence (Q06124 1-593): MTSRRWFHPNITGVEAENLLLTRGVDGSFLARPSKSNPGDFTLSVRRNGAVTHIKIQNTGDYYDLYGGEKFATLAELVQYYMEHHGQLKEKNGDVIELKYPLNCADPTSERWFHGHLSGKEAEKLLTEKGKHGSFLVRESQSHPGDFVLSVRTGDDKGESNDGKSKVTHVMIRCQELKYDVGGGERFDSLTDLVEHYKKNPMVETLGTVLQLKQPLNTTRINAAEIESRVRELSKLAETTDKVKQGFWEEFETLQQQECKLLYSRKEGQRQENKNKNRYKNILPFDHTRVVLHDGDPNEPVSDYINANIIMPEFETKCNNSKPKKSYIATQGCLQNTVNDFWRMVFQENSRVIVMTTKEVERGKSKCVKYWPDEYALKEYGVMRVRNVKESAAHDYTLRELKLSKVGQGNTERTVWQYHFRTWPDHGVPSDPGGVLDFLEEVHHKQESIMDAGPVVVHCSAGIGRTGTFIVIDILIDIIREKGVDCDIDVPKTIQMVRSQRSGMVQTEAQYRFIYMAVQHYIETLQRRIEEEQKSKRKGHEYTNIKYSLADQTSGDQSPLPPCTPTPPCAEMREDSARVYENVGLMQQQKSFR
Assay: SHP2 degradation by Western blotting in HEK293 cells
Assay type: cell-based
Design: endogenous in cells; host or cells: HEK293
Conditions: HEK293 cells, 16 h treatment, 1 μM
metric.name: Degradation at 1 μM

compound | test.value
Cc1ncsc1-c1ccc([C@H](C)NC(=O)[C@@H]2C[C@@H](O)CN2C(=O)[C@@H](NC(=O)CCOCCOCCOCCOCCNC(=O)CCCCCC2(CN)CCN(c3cnc(Sc4cccc(Cl)c4Cl)c(N)n3)CC2)C(C)(C)C)cc1 [P4] | <10%
Cc1ncsc1-c1ccc([C@H](C)NC(=O)[C@@H]2C[C@@H](O)CN2C(=O)[C@@H](NC(=O)CCOCCOCCOCCOCCOCCNC(=O)CCCCCC2(CN)CCN(c3cnc(Sc4cccc(Cl)c4Cl)c(N)n3)CC2)C(C)(C)C)cc1 [P5] | <10%
Cc1ncsc1-c1ccc([C@H](C)NC(=O)[C@@H]2C[C@@H](O)CN2C(=O)[C@@H](NC(=O)CCCCCCCCCCNC(=O)CCCCCC2(CN)CCN(c3cnc(Sc4cccc(Cl)c4Cl)c(N)n3)CC2)C(C)(C)C)cc1 [SC10] | 36%
Cc1ncsc1-c1ccc([C@H](C)NC(=O)[C@@H]2C[C@@H](O)CN2C(=O)[C@@H](NC(=O)CCOCCOCCOCCNC(=O)CCCCCC2(CN)CCN(c3cnc(Sc4cccc(Cl)c4Cl)c(N)n3)CC2)C(C)(C)C)cc1 [P3] | <10%
Cc1ncsc1-c1ccc([C@H](C)NC(=O)[C@@H]2C[C@@H](O)CN2C(=O)[C@@H](NC(=O)CCCCCCCCCCCNC(=O)CCCCCC2(CN)CCN(c3cnc(Sc4cccc(Cl)c4Cl)c(N)n3)CC2)C(C)(C)C)cc1 [SC11] | 27%
Cc1ncsc1-c1ccc([C@H](C)NC(=O)[C@@H]2C[C@@H](O)CN2C(=O)[C@@H](NC(=O)CCCCCNC(=O)CCCCCC2(CN)CCN(c3cnc(Sc4cccc(Cl)c4Cl)c(N)n3)CC2)C(C)(C)C)cc1 [SC5] | <10%
Cc1ncsc1-c1ccc([C@H](C)NC(=O)[C@@H]2C[C@@H](O)CN2C(=O)[C@@H](NC(=O)CCCCCCCNC(=O)CCCCCC2(CN)CCN(c3cnc(Sc4cccc(Cl)c4Cl)c(N)n3)CC2)C(C)(C)C)cc1 [SC7] | <10%
